Hello, the source for this data is patent US20230150974A1, in case you need it.

Target: HiBiT-BRM (Homo sapiens)
Construct: expressed in transfected cells
Sequence (P51531 whole entry): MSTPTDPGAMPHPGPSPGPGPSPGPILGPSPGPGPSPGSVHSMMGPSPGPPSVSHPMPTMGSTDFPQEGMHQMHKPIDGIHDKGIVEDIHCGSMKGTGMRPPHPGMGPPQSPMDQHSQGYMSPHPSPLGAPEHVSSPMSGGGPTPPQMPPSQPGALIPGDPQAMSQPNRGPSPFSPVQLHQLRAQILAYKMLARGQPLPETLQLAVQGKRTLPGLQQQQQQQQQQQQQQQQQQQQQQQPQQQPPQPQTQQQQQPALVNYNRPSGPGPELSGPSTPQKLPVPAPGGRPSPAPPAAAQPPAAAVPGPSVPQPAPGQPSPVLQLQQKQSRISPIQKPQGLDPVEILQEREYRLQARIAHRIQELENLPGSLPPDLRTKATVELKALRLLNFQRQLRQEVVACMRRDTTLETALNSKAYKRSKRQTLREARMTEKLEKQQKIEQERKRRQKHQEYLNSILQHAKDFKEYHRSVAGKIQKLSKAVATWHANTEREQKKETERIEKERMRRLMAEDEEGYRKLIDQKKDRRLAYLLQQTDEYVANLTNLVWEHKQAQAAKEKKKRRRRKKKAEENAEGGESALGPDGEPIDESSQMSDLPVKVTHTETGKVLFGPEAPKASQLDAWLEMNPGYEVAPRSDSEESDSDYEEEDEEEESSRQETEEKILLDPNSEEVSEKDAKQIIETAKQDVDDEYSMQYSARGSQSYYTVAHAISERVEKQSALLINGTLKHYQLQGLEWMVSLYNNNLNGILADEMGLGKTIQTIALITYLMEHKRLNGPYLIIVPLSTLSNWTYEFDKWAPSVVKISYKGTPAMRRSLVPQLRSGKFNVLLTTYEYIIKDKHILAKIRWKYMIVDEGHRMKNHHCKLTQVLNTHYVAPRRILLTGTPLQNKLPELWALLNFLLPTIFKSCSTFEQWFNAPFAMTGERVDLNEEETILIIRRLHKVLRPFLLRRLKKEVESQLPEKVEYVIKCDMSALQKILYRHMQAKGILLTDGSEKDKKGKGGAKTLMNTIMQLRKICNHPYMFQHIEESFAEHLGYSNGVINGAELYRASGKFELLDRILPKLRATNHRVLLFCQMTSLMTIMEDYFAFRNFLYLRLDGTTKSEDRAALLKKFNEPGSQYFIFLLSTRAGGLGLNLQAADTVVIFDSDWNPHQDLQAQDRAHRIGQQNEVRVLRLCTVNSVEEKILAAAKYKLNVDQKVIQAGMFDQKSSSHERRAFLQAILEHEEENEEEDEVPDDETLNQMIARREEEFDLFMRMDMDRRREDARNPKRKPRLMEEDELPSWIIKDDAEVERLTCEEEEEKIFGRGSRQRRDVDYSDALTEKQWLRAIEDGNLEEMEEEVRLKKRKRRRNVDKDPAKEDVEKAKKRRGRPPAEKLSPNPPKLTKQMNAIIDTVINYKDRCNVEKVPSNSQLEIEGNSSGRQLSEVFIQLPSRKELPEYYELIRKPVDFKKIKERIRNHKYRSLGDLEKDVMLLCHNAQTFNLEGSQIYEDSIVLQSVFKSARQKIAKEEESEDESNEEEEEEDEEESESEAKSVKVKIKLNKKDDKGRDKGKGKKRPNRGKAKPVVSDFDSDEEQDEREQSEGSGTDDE
Experiment: HiBiT-BRM cell-based degradation assay (Nano-Glo HiBiT Lytic Detection)
Conditions: HeLa cells expressing HiBiT-BRM, 24 h; read-out: BRM HiBit Degradation IC50
PROPERTY NAME: DC50

Cc1ncsc1-c1ccc([C@H](C)NC(=O)[C@@H]2C[C@@H](O)CN2C(=O)[C@@H](NC(=O)CCCCCCCCCCC(=O)NCc2ccc(CCOc3cc(-c4ccccc4O)nnc3N)cc2)C(C)(C)C)cc1 > 10 nM

Consider the record given below.
query: Would you kindly share the measured DC50 for "Cc1ncsc1-c1ccc([C@H](C)NC(=O)[C@@H]2C[C@@H](O)CN2C(=O)[C@@H](NC(=O)CCCCCCCCCCN2C[C@@H]3CN(Cc4ccc(CCOc5cc(-c6ccccc6O)nnc5N)cc4)C[C@@H]3C2)C(C)(C)C)cc1" ?
result: > 10 nM

* * *

Molecular target: HiBit-BRG1 (Homo sapiens)
Construct: expressed in transfected cells
Assay: HiBit-BRG1 cell-based degradation assay (Nano-Glo HiBiT Lytic Detection)
Conditions: HeLa cells expressing HiBit-BRG1 and LgBit, 24 h; read-out: BRG1 HiBit Degradation IC50
Documented DC50 across a set of compounds

COMPOUND	DC50
Nc1nnc(-c2ccccc2O)cc1OCCc1ccc(CNC(=O)CCCCOc2ccc3c(c2)C(=O)N(C2CCC(=O)NC2=O)C3=O)cc1 (stereo not drawn) [Compound 5]	> 1000 nM

query: # get_value(readout='DC50', item= Cc1ncsc1-c1ccc([C@H](C)NC(=O)[C@@H]2C[C@@H](O)CN2C(=O)[C@@H](NC(=O)CCCCCCCCCCCCCC(=O)N(C)Cc2ccc(CCOc3cc(-c4ccccc4O)nnc3N)cc2)C(C)(C)C)cc1 [Compound 197] )
result: > 1000 nM

query: Look up DC50: Nc1nnc(-c2ccccc2O)cc1OCCc1ccc(CNCCCCCOc2ccc3c(c2)C(=O)N(C2CCC(=O)NC2=O)C3=O)cc1 (stereo not drawn) [Compound 116, diformic acid]
result: > 1000 nM

* * *

DC50 reference
Molecular target: HiBit-BRG1 (Homo sapiens, UniProt P51532)
Construct: expressed in transfected cells
Sequence (P51532 whole entry): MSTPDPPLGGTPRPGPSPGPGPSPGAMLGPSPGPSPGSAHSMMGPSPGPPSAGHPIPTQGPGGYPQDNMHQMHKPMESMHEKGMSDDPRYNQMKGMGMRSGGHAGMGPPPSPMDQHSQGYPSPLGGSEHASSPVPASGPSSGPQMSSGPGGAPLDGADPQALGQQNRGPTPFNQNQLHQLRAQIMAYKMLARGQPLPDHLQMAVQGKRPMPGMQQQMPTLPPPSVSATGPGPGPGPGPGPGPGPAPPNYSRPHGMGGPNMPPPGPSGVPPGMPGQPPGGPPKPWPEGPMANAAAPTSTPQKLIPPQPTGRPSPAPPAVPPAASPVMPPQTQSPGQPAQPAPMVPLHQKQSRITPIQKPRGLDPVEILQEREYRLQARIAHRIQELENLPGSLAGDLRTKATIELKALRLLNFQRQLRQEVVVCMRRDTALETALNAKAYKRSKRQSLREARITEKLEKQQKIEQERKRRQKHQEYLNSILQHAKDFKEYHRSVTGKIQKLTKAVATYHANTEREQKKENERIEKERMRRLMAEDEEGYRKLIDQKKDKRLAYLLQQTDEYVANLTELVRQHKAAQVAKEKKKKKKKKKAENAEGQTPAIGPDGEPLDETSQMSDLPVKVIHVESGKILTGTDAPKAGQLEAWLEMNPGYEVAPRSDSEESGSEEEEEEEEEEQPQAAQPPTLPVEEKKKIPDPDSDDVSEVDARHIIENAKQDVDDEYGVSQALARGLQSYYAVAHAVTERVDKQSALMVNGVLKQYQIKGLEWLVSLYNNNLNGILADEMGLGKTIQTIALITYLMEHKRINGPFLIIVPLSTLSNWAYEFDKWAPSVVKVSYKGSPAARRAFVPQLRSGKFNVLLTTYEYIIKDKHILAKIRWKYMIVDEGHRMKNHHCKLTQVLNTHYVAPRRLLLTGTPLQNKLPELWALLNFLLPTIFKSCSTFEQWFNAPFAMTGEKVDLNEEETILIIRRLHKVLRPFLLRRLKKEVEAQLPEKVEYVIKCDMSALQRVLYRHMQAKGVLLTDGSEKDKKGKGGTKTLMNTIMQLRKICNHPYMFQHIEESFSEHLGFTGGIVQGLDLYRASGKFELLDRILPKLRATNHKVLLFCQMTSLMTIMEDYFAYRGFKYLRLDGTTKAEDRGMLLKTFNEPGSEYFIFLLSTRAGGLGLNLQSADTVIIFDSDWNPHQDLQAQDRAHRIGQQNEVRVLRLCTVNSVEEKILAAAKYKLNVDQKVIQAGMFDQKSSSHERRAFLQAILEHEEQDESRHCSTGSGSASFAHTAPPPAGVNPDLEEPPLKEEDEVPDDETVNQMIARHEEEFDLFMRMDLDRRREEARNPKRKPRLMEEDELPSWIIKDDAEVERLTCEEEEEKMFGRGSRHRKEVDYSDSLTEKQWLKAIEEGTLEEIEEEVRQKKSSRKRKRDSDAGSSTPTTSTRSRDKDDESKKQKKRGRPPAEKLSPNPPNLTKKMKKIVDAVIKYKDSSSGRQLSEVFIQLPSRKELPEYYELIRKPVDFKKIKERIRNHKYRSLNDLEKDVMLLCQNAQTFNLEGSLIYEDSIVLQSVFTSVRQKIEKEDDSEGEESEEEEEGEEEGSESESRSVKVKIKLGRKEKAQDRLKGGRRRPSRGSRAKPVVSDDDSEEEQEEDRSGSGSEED
Test: HiBit-BRG1 cell-based degradation assay (Nano-Glo HiBiT Lytic Detection)
Details: HeLa cells expressing HiBit-BRG1 and LgBit, 24 h; read-out: BRG1 HiBit Degradation IC50

Answered examples (2):
MOLECULE	DC50
Cc1ncsc1-c1ccc([C@H](C)NC(=O)[C@@H]2C[C@@H](O)CN2C(=O)[C@@H](NC(=O)CCN2CCC3(CCN(CCC(=O)NCc4ccc(CCOc5cc(-c6ccccc6O)nnc5N)cc4)CC3)CC2)C(C)(C)C)cc1	> 1000 nM
Cc1ncsc1-c1ccc(CNC(=O)[C@@H]2C[C@@H](O)CN2C(=O)[C@@H](NC(=O)CCN2CCC(O)(C(=O)NCc3ccc(CCOc4cc(-c5ccccc5O)nnc4N)cc3)CC2)C(C)(C)C)cc1	> 1000 nM

query: Reported DC50 for Nc1nnc(-c2ccccc2O)cc1OCCc1ccc(C(=O)NCCCCCNc2cccc3c2C(=O)N(C2CCC(=O)NC2=O)C3=O)cc1 (stereo not drawn) : what is it?
result: > 1000 nM

* * *

Biological target: HiBit-BRG1 (Homo sapiens, UniProt P51532)
Construct: expressed in transfected cells
Assay: HiBit-BRG1 cell-based degradation assay (Nano-Glo HiBiT Lytic Detection)
Conditions: HeLa cells expressing HiBit-BRG1 and LgBit, 24 h; read-out: BRG1 HiBit Degradation Maximum (%)
PROPERTY NAME: Dmax

Here's what some known entries look like.
COMPOUND	Dmax
Cc1ncsc1-c1ccc(CNC(=O)[C@@H]2C[C@@H](O)CN2C(=O)[C@@H](NC(=O)COCCOCCOCC(=O)NCc2ccc(CCOc3cc(-c4ccccc4O)nnc3N)cc2)C(C)(C)C)cc1 [Compound 38]	< 50%
Cc1ncsc1-c1ccc(CNC(=O)[C@@H]2C[C@@H](O)CN2C(=O)[C@@H](NC(=O)CCCCCCCCCCCCCCCC(=O)NCc2ccc(CCN(C)c3cc(-c4ccccc4O)nnc3N)cc2)C(C)(C)C)cc1 [Compound 133]	< 50%

Note: attention shifts to another entry.
query: Fill in: Dmax of Cc1ncsc1-c1ccc(CNC(=O)[C@@H]2C[C@@H](O)CN2C(=O)[C@@H](NC(=O)CCN2CC(CC(=O)NCc3ccc(CCOc4cc(-c5ccccc5O)nnc4N)cc3)C2)C(C)(C)C)cc1 [Compound 183] is ___
result: < 50%

* * *

Molecular target: HiBit-BRG1 (Homo sapiens, UniProt P51532)
Construct: expressed in transfected cells
Assay: HiBit-BRG1 cell-based degradation assay (Nano-Glo HiBiT Lytic Detection)
Conditions: HeLa cells expressing HiBit-BRG1 and LgBit, 24 h; read-out: BRG1 HiBit Degradation IC50
Recorded DC50 values for a group of compounds are listed next.

COMPOUND	TEST TARGET	PROPERTY NAME	RESULT
Nc1nnc(-c2ccccc2O)cc1OCCc1ccc(CNC(=O)CCCCOc2cccc3c2C(=O)N(C2CCC(=O)NC2=O)C3)cc1 (stereo not shown)	HiBit-BRG1 (Homo sapiens, UniProt P51532)	DC50	> 1 µM

query: # query: DC50 of entry "Cc1ncsc1-c1ccc(CNC(=O)[C@@H]2C[C@@H](O)CN2C(=O)[C@@H](NC(=O)CCN2CCN(CCOc3cc(N4[C@@H]5CC[C@H]4CN(c4cc(-c6ccccc6O)nnc4N)C5)ccn3)CC2)C(C)(C)C)cc1"
result: > 1 µM

query: # DC50 lookup, item "Cc1ncsc1-c1ccc([C@H](C)NC(=O)[C@@H]2C[C@@H](O)CN2C(=O)[C@@H](c2cc(OCCN3C[C@@H]4CN(C(=O)c5ccc(CCOc6cc(-c7ccccc7O)nnc6N)cc5)C[C@@H]4C3)no2)C(C)C)cc1"
result: > 0.1 µM

query: Give its DC50 value. Item: "Cc1ncsc1-c1ccc([C@H](C)NC(=O)[C@@H]2C[C@@H](O)CN2C(=O)[C@@H](c2cc(OCCN3CC4(C3)CN(C(=O)c3ccc(CCOc5cc(-c6ccccc6O)nnc5N)cc3)C4)no2)C(C)C)cc1"
result: > 0.1 µM

query: GET /values?readout=DC50&item= "Cc1ncsc1-c1ccc([C@H](C)NC(=O)[C@@H]2C[C@@H](O)CN2C(=O)[C@@H](NC(=O)CCCCCCCCCCCCCCNCc2ccc(CCOc3cc(-c4ccccc4O)nnc3N)cc2)C(C)(C)C)cc1"
result: > 1 µM

query: I would be grateful if you could share the reported DC50 for Nc1nnc(-c2ccccc2O)cc1OCCc1ccc(C(=O)NCCOCCOCCNc2cccc3c2CN(C2CCC(=O)NC2=O)C3=O)cc1 (stereo not shown) .
result: > 1 µM

query: What value of DC50 has been reported for the following compound? Nc1nnc(-c2ccccc2O)cc1OCCc1ccc(CNC(=O)CCCCCCCCNc2cccc3c2C(=O)N(C2CCC(=O)NC2=O)C3=O)cc1 (stereo not shown)
result: > 1 µM

query: # DC50 lookup, item "Cc1ncsc1-c1ccc([C@H](C)NC(=O)[C@@H]2C[C@@H](O)CN2C(=O)[C@@H](c2cc(OCCN3CC4(C3)CN(CC(=O)NCc3ccc(CCOc5cc(-c6ccccc6O)nnc5N)cc3)C4)no2)C(C)C)cc1"
result: > 1 µM

query: # query: DC50 of entry Nc1nnc(-c2ccccc2O)cc1OCCc1ccc(C(=O)NCCOCCOCCNc2cccc3c2C(=O)N(C2CCC(=O)NC2=O)C3=O)cc1 (stereo not shown)
result: > 1 µM

query: For the compound shown here, "Cc1ncsc1-c1ccc(CNC(=O)[C@@H]2C[C@@H](O)CN2C(=O)[C@@H](NC(=O)COCCOCCOCC(=O)NCc2ccc(CCOc3cc(-c4ccccc4O)nnc3N)cc2)C(C)(C)C)cc1" , give the reported DC50.
result: > 1 µM

* * *

Catalogue of Dmax readings, one per entry.
Target: HiBit-BRG1 (Homo sapiens, UniProt P51532)
Construct: expressed in transfected cells
Assay: HiBit-BRG1 cell-based degradation assay (Nano-Glo HiBiT Lytic Detection)
Conditions: HeLa cells expressing HiBit-BRG1 and LgBit, 24 h; read-out: BRG1 HiBit Degradation Maximum (%)

Answered examples (2):
COMPOUND	Dmax
Cc1ncsc1-c1ccc([C@H](C)NC(=O)[C@@H]2C[C@@H](O)CN2C(=O)[C@@H](c2cc(OCCN3CCC4(CC3)CCN(C(=O)c3ccc(CCOc5cc(-c6ccccc6O)nnc5N)cc3)CC4)no2)C(C)C)cc1 [Compound 209]	> 75%
Cc1ncsc1-c1ccc(CNC(=O)[C@@H]2C[C@@H](O)CN2C(=O)[C@@H](NC(=O)CCCCN2CCN(CCOc3cc(N4[C@@H]5CC[C@H]4CN(c4cc(-c6ccccc6O)nnc4N)C5)ccn3)CC2)C(C)(C)C)cc1 [Compound 234]	< 50%

query: Please give the measured Dmax for this compound: Cc1ncsc1-c1ccc(CNC(=O)[C@@H]2C[C@@H](O)CN2C(=O)[C@@H](NC(=O)CCCCCCCCCNCc2ccc(CCOc3cc(-c4ccccc4O)nnc3N)cc2)C(C)(C)C)cc1 [Compound 26]
result: < 50%

query: Can you look up the measured Dmax of Cc1ncsc1-c1ccc(CNC(=O)[C@@H]2C[C@@H](O)CN2C(=O)[C@@H](NC(=O)CCCCCCCCCCC(=O)NCc2ccc(CCOc3cc(-c4ccccc4O)nnc3N)cc2)C(C)(C)C)cc1 [Compound 37] for me?
result: < 50%

query: Can you look up the measured Dmax of Cc1ncsc1-c1ccc(CNC(=O)[C@@H]2C[C@@H](O)CN2C(=O)[C@@H](NC(=O)CCNCc2ccc(CCOc3cc(-c4ccccc4O)nnc3N)cc2)C(C)(C)C)cc1 [Compound 187] for me?
result: < 50%

query: Recorded Dmax for Cc1ncsc1-c1ccc([C@H](C)NC(=O)[C@@H]2C[C@@H](O)CN2C(=O)[C@@H](c2cc(OCCN3CCN(CC(=O)NCc4ccc(CCOc5cc(-c6ccccc6O)nnc5N)cc4)CC3)no2)C(C)C)cc1 [Compound 174] , please?
result: > 75%
